This listing pairs compounds with measured IC50.
Target: human LPA1 (Homo sapiens, UniProt Q92633)
Construct: the full-length cDNA for human LPA1 was obtained by PCR of the reverse transcription reaction
Sequence (Q92633 whole entry): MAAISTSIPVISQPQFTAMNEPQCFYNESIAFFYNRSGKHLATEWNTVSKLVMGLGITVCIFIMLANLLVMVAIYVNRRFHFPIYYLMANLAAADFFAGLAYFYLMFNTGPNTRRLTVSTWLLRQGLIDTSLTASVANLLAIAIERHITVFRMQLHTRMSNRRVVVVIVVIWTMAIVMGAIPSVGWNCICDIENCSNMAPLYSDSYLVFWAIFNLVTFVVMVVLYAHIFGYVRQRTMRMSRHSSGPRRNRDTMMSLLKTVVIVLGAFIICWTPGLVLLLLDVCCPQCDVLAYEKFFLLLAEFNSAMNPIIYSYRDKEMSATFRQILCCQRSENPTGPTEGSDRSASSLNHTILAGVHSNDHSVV
Experiment: LPA1 calcium flux assay
Conditions: CHO cells expressing human LPA1, stimulated with 10 nM LPA; read-out: HLPA1 Ca Flux IC50
Experimental: A 1.1 kb cDNA encoding the human LPA1 receptor was cloned from human lung. […] Human LPA1 or LPA3 expressing CHO cells are seeded at 20,000-45,000 cells per well in a 96-well poly-D-lysine coated plate one or two days before the assay. […] Cells are the stimulated by the addition of 10 nM LPA and intracellular Ca^2+ measured using the Flexstation 3 (Molecular Devices). IC50s are determined using Graphpad prism analysis of drug titration curves.
Quantity: IC50

# Compound, Value observed
rows = [
    ("Cc1noc(-c2ccc(-c3ccc(CC(=O)O)cc3)cc2)c1CS(=O)(=O)CCc1ccccc1", "1000 to 50000 nM"),
    ("Cc1noc(-c2ccc(-c3ccc(C4(C(=O)O)CC4)cc3)cc2)c1CCC(=O)N1CCCC1", "1000 to 50000 nM"),
    ("Cc1noc(-c2ccc(-c3ccc(C4(C(=O)O)CC4)cc3)cc2)c1C(=O)NCCc1ccccc1", "1000 to 50000 nM"),
    ("Cc1noc(-c2ccc(-c3ccc(C4(CC(=O)O)CC4)cc3)cc2)c1/C=C/CCc1ccccc1", "300 to 1000 nM"),
    ("C=CCCC(C)Nc1c(C)noc1-c1ccc(-c2ccc(C3(C(=O)O)CC3)cc2)cc1 (stereo not shown)", "< 300 nM"),
    ("Cc1noc(-c2ccc(-c3ccc(C4(C(=O)O)CC4)cc3)cc2)c1NS(=O)(=O)Cc1ccccc1Cl", "300 to 1000 nM"),
    ("Cc1noc(-c2ccc(-c3ccc(CC(=O)O)cc3)cc2)c1NC(C)CCc1cccc(C(F)(F)F)c1 (stereo not shown)", "300 to 1000 nM"),
]
